STUDY_TARGET: recombinant human 15-PGDH (Homo sapiens, UniProt P15428)
Construct: purchased R&D Systems
Sequence (P15428 whole entry): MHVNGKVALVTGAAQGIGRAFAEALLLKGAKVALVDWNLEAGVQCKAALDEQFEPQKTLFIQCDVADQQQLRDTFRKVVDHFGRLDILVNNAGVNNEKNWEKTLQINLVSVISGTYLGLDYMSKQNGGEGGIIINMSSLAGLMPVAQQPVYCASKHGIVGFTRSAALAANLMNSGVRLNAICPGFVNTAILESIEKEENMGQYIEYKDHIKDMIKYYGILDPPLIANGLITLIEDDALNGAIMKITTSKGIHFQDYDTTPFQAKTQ
RUN_DESCRIPTION: 15-PGDH enzyme inhibition test
Format: biochemical
CONDITIONS: 4 nM recombinant human 15-PGDH, 30 μM PGE2, 1 mM NAD+, 60 minutes after starting the reaction; read-out: IC50 Value
pIC50: −log10 of the molar value.
Please provide measured pIC50 for the entries that follow.

Field pIC50 (entry `C[C@@H]1CCCN(C(=O)c2cnc3c(c2)OCCCN3c2ccn3c(=O)n(C)nc3c2)C1` ) reads > 8.00

Field pIC50 (entry `Cn1nc2cc(N3CCOc4cc(C(=O)N5CCC(F)(F)C5)cnc43)ccn2c1=O` ) reads > 8.00

Field pIC50 (entry `O=C(c1cnc2c(c1)OCCN2c1ccn2c(=O)n(-c3ccccn3)nc2c1)N1CCCCC1` ) reads > 8.00

Field pIC50 (entry `Cn1nc2cc(N3CCCc4cc(C(=O)N5CCCC5)cnc43)ccn2c1=O` ) reads > 8.00

Field pIC50 (entry `CN1Cc2cc(N3CCOc4cc(C(=O)N5CCC5)cnc43)ccc2C1=O` ) reads > 8.00

Field pIC50 (entry `Cn1nc2cc(N3CCCc4cc(C(=O)N5CCCCCCC5)cnc43)ccn2c1=O` ) reads > 8.00

Field pIC50 (entry `C[C@@H]1COc2cc(C(=O)N3CCCCC3)ccc2N(c2ccc(C(=O)O)cc2)C1` ) reads > 8.00

Field pIC50 (entry `O=C(c1cnc2c(c1)OCCN2c1ccn2c(=O)n(CC(F)(F)F)nc2c1)N1CCCCC1` ) reads > 8.00

Field pIC50 (entry `Cn1nc2cc(N3CCCc4cc(C(=O)N5CCC[C@H](C(F)F)C5)cnc43)ccn2c1=O` ) reads > 8.00

Field pIC50 (entry `O=C(O)c1ccc(N2CCCCOc3cc(C(=O)N4CCCCC4)ccc32)cc1` ) reads > 8.00

Field pIC50 (entry `Cn1nc2cc(N3CCOc4cc(S(=O)(=O)C5CCCCC5)cnc43)ccn2c1=O` ) reads < 7.00

Field pIC50 (entry `CCc1ccc(N2CCOc3cc(C(=O)N4CCCCC4)cnc32)cc1` ) reads 7.00 to 8.00

Field pIC50 (entry `CCOCCN1Cc2cc(N3CCOc4cc(C(=O)N5CCC(F)(F)CC5)cnc43)ccc2C1=O` ) reads > 8.00

Field pIC50 (entry `Cn1nc2cc(N3CCCc4cc(C(=O)N5CCC[C@@H](C(F)(F)F)C5)cnc43)ccn2c1=O` ) reads 7.00 to 8.00

Field pIC50 (entry `CC(=O)N1CCN(c2ccn3c(=O)n(C)nc3c2)c2ncc(C(=O)N3CCCCC3)cc21` ) reads > 8.00

Field pIC50 (entry `CCCN1Cc2cc(N3CCOc4cc(C(=O)N5CCCCC5)cnc43)ccc2C1=O` ) reads > 8.00

Field pIC50 (entry `CN1Cc2cc(N3CCOc4cc(C(=O)N5CCCC(F)(F)C5)cnc43)ccc2C1=O` ) reads > 8.00
